Attribution: paper PMC6838013

- experimental target: A. aegypti ACP receptor (AedaeACPR)
- method notes: Calcium bioluminescence (aequorin) reporter assay of heterologously expressed ACPR
- Assay type: cell-based, Aedes aegypti
- condition description: CHO-K1 cells stably expressing aequorin, transiently transfected with ACPR and murine Gα15 (pBudCE4.1); luminescence 20 s; 3 to 4 independent biological replicates; ND = no determined EC50 due to minimal or no detectable activity up to 10 μM
- From the text: Therefore, to improve the bioluminescent signal linked to calcium mobilization following receptor activation, which was required in order to provide greater signal to noise ratio when testing ACP analogs with substitutions leading to intermediate levels of activation of the ACPR, we created a new mammalian expression construct using the dual promoter vector, pBudCE4.1. […]
quantity: EC50 (nM)
Give bare numbers, in nM.

Ac-AVTFSRDWNA-NH2 [Aedae-ACP (A1b)]; 527

With those in mind, consider the next substance.
Measured EC50 of H-AVTFSRDWNA-NH2 [Aedae-ACP (A1)] : 1580

====

Can you tell me Fold-reduction in activity relative to AedaeACP for the items I'm about to list?
- System: A. aegypti ACP receptor (AedaeACPR)
- method notes: Calcium bioluminescence (aequorin) reporter assay of heterologously expressed ACPR
- Type: cell-based, Aedes aegypti
- condition description: ACPR in CHO-K1 aequorin cells; relative to native Aedae-ACP

Reference set, count: 3
Ac-AVTFSRDWNA-NH2 [Aedae-ACP (A1b)]; 43.6 fold
pQ-TFSRDWNAamide [Aedae-ACP (1,3-10), internally truncated ACP analog lacking valine in the second position]; >1,000 fold
pQVTASRDWNAamide [Aedae-ACP (A4), synthetic ACP analog, alanine at position 4]; >1,000 fold

For pQLTFTSSWGGamide [Lacol-AKH, naturally-occurring insect AKH decapeptide] the substance record lists Fold-reduction in activity relative to AedaeACP as >1,000 fold

====

- Test system: A. aegypti ACP receptor (AedaeACPR)
- method notes: Calcium bioluminescence (aequorin) reporter assay of heterologously expressed ACPR
- Assay type: cell-based, Aedes aegypti
- condition description: ACPR in CHO-K1 aequorin cells; relative to native Aedae-ACP
Non-standard residues stand in square brackets, D forms with d. Residues, ends and D or L forms follow the SMILES beside them. pGlu = O=C1CC[C@@H](C(=O)O)N1
quantity: Fold-reduction in activity relative to AedaeACP (fold)
Give bare numbers, in fold.

Would you please look over these solved cases?
CC(C)[C@H](NC(=O)[C@@H]1CCC(=O)N1)C(=O)N[C@H](C(=O)N[C@@H](Cc1ccccc1)C(=O)N[C@@H](CO)C(=O)N[C@@H](CCCNC(=N)N)C(=O)N[C@@H](CC(=O)O)C(=O)N[C@@H](Cc1c[nH]c2ccccc12)C(=O)N[C@@H](CC(N)=O)C(N)=O)[C@@H](C)O [Aedae-ACP (1-9)] ([pGlu]VTFSRDWN-NH2); 434.2
CC(C)[C@H](NC(=O)[C@@H]1CCC(=O)N1)C(=O)N[C@H](C(=O)N[C@@H](Cc1ccccc1)C(=O)N[C@@H](CO)C(=O)N[C@@H](C)C(=O)N[C@@H](CC(=O)O)C(=O)N[C@@H](Cc1c[nH]c2ccccc12)C(=O)N[C@@H](CC(N)=O)C(=O)N[C@@H](C)C(N)=O)[C@@H](C)O [Aedae-ACP (A6)] ([pGlu]VTFSADWNA-NH2); 23.3

The record that follows has no Fold-reduction in activity relative to AedaeACP shown yet.
Test item CC(C)[C@H](NC(=O)[C@@H]1CCC(=O)N1)C(=O)N[C@H](C(=O)N[C@@H](Cc1ccccc1)C(=O)N[C@@H](CO)C(=O)N[C@@H](CCCNC(=N)N)C(=O)N[C@@H](C)C(=O)N[C@@H](Cc1c[nH]c2ccccc12)C(=O)N[C@@H](CC(N)=O)C(=O)N[C@@H](C)C(N)=O)[C@@H](C)O [Aedae-ACP (A7)] ([pGlu]VTFSRAWNA-NH2) ; A. aegypti ACP receptor (AedaeACPR); reported Fold-reduction in activity relative to AedaeACP was 15.9
